assay: Serum stability analysis; type: in vitro ADME; conditions: mouse
*1 amine or outer side, *2 acyl side, *3 side chain or, on linkers, in order; H or OH if unused. Where a SMILES comes first, the peptide text is derived from it. Side-chain parts run from the residue outwards. The star is where a group is joined. C20 diacid = O=C(O)CCCCCCCCCCCCCCCCCCC(=O)*; γGlu = O=C(O)[C@H](CCC(=O)[*:2])N[*:1]; PEG2 = NCCOCCOCCC(=O)O
Measurement kind: half-life at 5 mM

Asked: What value of measured half-life at 5 mM is listed for CC(C)C[C@H](NC(=O)[C@@H]1CCCN1C(=O)[C@H](Cc1ccccc1)NC(=O)CNC(=O)[C@@H]1CCCN1C(=O)[C@H](C)NC(=O)[C@H](CCCCNC(=O)CCOCCOCCNC(=O)CCOCCOCCNC(=O)CC[C@H](NC(=O)CCCCCCCCCCCCCCCCCCC(=O)O)C(=O)O)NC(=O)CNC(=O)[C@H](Cc1ccccc1)NC(=O)[C@@H](N)[C@@H](C)O)C(=O)NCC(=O)N[C@@H](CO)C(N)=O [S6-FA] (H-TFGK([PEG2-PEG2-γGlu-C20 diacid])APGFPLGS-NH2) ?
Given back: ~24 h
